These data points were gathered from patent US12122778B2.

Please provide measured activation at 1.54 µM for the entries that follow.
Target: UniProtKB P30613
Sequence (P30613 whole entry): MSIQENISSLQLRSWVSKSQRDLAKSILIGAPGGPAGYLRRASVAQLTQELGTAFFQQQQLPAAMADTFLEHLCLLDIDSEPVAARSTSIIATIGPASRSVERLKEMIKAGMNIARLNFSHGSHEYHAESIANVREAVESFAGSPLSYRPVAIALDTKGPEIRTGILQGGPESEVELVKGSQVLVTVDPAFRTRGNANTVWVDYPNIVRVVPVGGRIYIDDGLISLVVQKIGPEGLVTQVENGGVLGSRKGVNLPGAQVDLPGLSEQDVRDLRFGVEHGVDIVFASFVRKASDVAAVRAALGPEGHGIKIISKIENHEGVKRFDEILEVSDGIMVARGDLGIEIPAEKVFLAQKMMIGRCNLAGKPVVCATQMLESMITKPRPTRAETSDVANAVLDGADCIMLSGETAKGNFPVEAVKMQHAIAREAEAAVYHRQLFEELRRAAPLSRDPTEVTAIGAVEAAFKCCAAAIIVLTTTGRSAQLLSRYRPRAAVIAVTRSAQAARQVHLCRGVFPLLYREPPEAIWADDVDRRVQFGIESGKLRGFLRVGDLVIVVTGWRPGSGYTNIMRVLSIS
Assay: Luminescence Biochemical Assay (Kinase Glo Plus), wild type PKR
Settings: without FBP, 1.54 μM compound, read-out: AC50 LUM KGP woFBP % Fold@1.54 μM mean

The examples below pair each entry with its known result.
                                   compound  experimental_target         result
0  CN1CCOc2ccc(S(=O)(=O)N3CC4=C(CN(C(=O)C5CCCC5)C4)C3)cc21     UniProtKB P30613     75 to 250%
1  CN(C)CCC(=O)N1CC2=C(C1)CN(S(=O)(=O)c1ccc3occc3c1)C2     UniProtKB P30613     75 to 250%
2  CC(=O)Nc1ccc(S(=O)(=O)N2CC3=C(CN(C(=O)[C@H](O)c4ccccc4)C3)C2)cc1     UniProtKB P30613     75 to 250%
3  O=C(NCc1ccccc1F)N1CC2=C(C1)CN(S(=O)(=O)c1ccccn1)C2     UniProtKB P30613  250 to 50000%
4  O=C([C@H](O)c1ccc2c(c1)NCCO2)N1CC2=C(C1)CN(S(=O)(=O)c1ccc(OC(F)F)cc1)C2 (single isomer, unassigned)     UniProtKB P30613     75 to 250%

Your task in this section: give activation at 1.54 µM for each listed record.
1. Cc1nc(CC(=O)N2CC3=C(C2)CN(S(=O)(=O)c2ccc(OC(F)F)cc2)C3)cs1
2. Cc1ccc(F)c(S(=O)(=O)N2CC3=C(CN(C(=O)[C@H](O)c4ccccc4)C3)C2)c1
3. CC(=O)Nc1cc(S(=O)(=O)N2CC3=C(CN(C(=O)[C@H](O)c4ccccc4)C3)C2)ccc1F

Return:
1: 250 to 50000%; 2: 75 to 250%; 3: 75 to 250%
